Entry source: PubChem BioAssay AID1159580

test: chemical genetic growth profiling, strain panel (AID 1159580);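 also: tested at 20 µM; growth read once vehicle control cultures reached saturation at 30 °C; lower values mean less growth of the strain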
protocol conditions: S. cerevisiae deletion strains, growth OD, locus YDL134C, strain PPH21
Among all 5,500 compounds or so, about 2,000 (36%) were called active. About 18% were inconclusive and are not listed. Rule as the data show it: active = normalized growth mostly below about 0.91 (no sharp cut-off); inconclusive = no clear call, values can overlap the other calls; inactive = mostly above about 0.92. This is one part of the list.
Outcomes: Y (active), N (inactive)

compound	assigned category
CC1(C)C=Cc2cc3ccc(=O)oc3cc2O1	N
COC(=O)C[C@H]1C(C)(C)[C@@H](O)[C@@H]2CC3=C4C=C(OC)O[C@@H](c5ccoc5)[C@]4(C)CCC3[C@@]1(C)C2=O (stereo partly specified)	N
CC(=O)c1cc2ccccc2oc1=O	N
C1CCC(C(CC2CCCCN2)C2CCCCC2)CC1 (stereo unspecified)	Y
C[C@]12CCC(=O)C=C1CCC1C2C(=O)C[C@@]2(C)C1CC[C@]2(O)C(=O)CO (stereo partly specified)	N
O=c1[nH]cnc2c1ncn2C1O[C@H](CO)[C@@H](O)[C@H]1O (stereo partly specified)	N
NCCc1c[nH]c2ccccc12	N
NC(=O)NO	N
CNC(Cc1c[nH]c2ccccc12)C(=O)O (stereo unspecified)	N
O=C(OC[C@H]1O[C@H](OC(=O)c2cc(O)c(O)c(OC(=O)c3cc(O)c(O)c(O)c3)c2)[C@H](OC(=O)c2cc(O)c(O)c(OC(=O)c3cc(O)c(O)c(O)c3)c2)[C@@H](OC(=O)c2cc(O)c(O)c(OC(=O)c3cc(O)c(O)c(O)c3)c2)[C@@H]1OC(=O)c1cc(O)c(O)c(OC(=O)c2cc(O)c(O)c(O)c2)c1)c1cc(O)c(O)c(OC(=O)c2cc(O)c(O)c(O)c2)c1	Y
CC(=O)[C@@]1(O)CCC2C3CCC4=CC(=O)CC[C@]4(C)C3CC[C@@]21C (stereo partly specified)	N
c1ccc([C@H]2CN3CCSC3=N2)cc1	N
NCC1OC(OC2C(CO)OC(OC3C(O)C(N)CC(N)C3OC3OC(CO)C(O)CC3N)C2O)C(N)C(O)C1OC1OC(CO)C(O)C(O)C1O (stereo unspecified)	N
CCOC(=O)c1cnc2nc(SC)nn2c1N	N
CC(N)C(O)c1ccc(O)c(O)c1 (stereo unspecified)	N
CC(=O)NC(=O)/C(C#N)=C/N1CCN(Cc2ccccc2)CC1	N
CC1=C(O)C(=O)C=C2C1=CC=C1[C@@]2(C)CC[C@@]2(C)[C@@H]3C[C@](C)(C(=O)O)CC[C@]3(C)CC[C@]12C	Y
CC(=O)N[C@@H](Cc1c[nH]c2ccccc12)C(=O)O	N
O=C1CCCN1c1ccc(Cl)c(Cl)c1	N
COc1ccc2c(c1)[C@]13CCCC[C@H]1[C@H](C2)N(C)CC3	N
CC1(C)C(=O)[C@@H]2O[C@@H]2[C@@]2(C)C1CC(=O)[C@]1(C)C2CC[C@@]2(C)[C@H](c3ccoc3)OC(=O)[C@H]3O[C@]321 (stereo partly specified)	N
